Biological target: Transient receptor potential cation channel subfamily V member 1 (Rattus norvegicus)
Experiment: Antagonist activity against low pH(5.0-5.5)-activated rat VR1
Here the recorded IC50 is given for each entry.

MOL | IC50 / µM
Nc1cc(-c2ncccc2C(F)(F)F)ccc1C(=O)Nc1ccc(C(F)(F)F)cc1 | 0.103
Cc1cccnc1-c1ccc(C(=O)Nc2ccc(C(C)(C)C)cc2)cc1 | 0.009
CC(C)(C)c1ccc(NC(=O)c2ccc(-c3ncccc3CO)cc2)cc1 | 0.088

###

Target: Transient receptor potential cation channel subfamily V member 1 (Rattus norvegicus, UniProt O35433)
Sequence (O35433 whole entry): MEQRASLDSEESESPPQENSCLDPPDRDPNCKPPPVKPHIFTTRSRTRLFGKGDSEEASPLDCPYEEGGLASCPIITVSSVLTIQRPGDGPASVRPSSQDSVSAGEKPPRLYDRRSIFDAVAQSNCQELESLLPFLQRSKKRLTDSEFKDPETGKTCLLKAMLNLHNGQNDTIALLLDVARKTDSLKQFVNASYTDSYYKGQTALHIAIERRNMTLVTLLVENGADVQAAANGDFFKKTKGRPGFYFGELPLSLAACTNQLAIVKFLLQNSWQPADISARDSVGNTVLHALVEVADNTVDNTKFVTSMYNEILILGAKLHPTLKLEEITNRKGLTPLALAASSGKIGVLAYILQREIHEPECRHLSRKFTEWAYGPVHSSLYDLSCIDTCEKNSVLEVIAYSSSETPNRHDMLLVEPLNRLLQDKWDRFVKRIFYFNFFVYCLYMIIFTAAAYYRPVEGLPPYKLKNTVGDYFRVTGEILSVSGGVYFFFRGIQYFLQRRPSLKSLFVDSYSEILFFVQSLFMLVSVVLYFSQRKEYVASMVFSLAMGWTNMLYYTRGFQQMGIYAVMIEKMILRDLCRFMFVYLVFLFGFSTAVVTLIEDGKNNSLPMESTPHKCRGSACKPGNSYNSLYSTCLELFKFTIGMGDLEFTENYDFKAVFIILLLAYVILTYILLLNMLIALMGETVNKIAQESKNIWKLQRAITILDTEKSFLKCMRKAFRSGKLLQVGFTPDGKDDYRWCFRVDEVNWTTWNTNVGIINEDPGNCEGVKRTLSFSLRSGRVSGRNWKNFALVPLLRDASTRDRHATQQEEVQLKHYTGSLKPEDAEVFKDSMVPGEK
Assay: Antagonist activity against low pH(5.0-5.5)-activated rat VR1
RESULT TYPE: IC50 (nM)

MOL | MEASUREMENT UNIT | RESULT QUALIFIER | OBSERVED
COc1ccc(NC(=O)c2ccc(-c3ncccc3C)cc2)cc1 | nM | > | 4000
CC(C)(C)c1ccc(NC(=O)c2ccc(-c3ncccc3C(=N)N)cc2)cc1 | nM | > | 4000
Cc1cc(-c2ncccc2C)ccc1C(=O)Nc1ccc(C(F)(F)F)cc1 | nM | > | 4000
Cc1cccnc1-c1ccc(C(=O)Nc2ccc(F)cc2)cc1 | nM | > | 4000
O=C(Nc1ccc(C(F)(F)F)cc1)c1ccc(-c2ncccc2C(F)(F)F)nc1 | nM | = | 56
O=C(Nc1ccc(C(F)(F)F)cc1)c1ccc(-c2ncccc2C(F)(F)F)cc1F | nM | = | 348
CCS(=O)(=O)Nc1cccnc1-c1ccc(C(=O)Nc2ccc(C(C)(C)C)cc2)cc1 | nM | = | 4
CC(=O)Nc1cccnc1-c1ccc(C(=O)Nc2ccc(C(C)(C)C)cc2)cc1 | nM | = | 290
CCCCS(=O)(=O)Nc1cccnc1-c1ccc(C(=O)Nc2ccc(C(C)(C)C)cc2)cc1 | nM | = | 141
CN(C)Cc1cccnc1-c1ccc(C(=O)Nc2ccc(C(C)(C)C)cc2)cc1 | nM | = | 234
O=C(Nc1ccc(C(F)(F)F)cc1)c1ccc(-c2ncccc2C(F)(F)F)nc1O | nM | = | 764
CC(C)(C)c1ccc(NC(=O)c2ccc(-c3ncccc3N(S(C)(=O)=O)S(C)(=O)=O)cc2)cc1 | nM | = | 0.4
CC(C)(C)c1ccc(NC(=O)c2ccc(-c3ncccc3CN3CCCC3)cc2)cc1 | nM | = | 196
CCN(CC)Cc1cccnc1-c1ccc(C(=O)Nc2ccc(C(C)(C)C)cc2)cc1 | nM | = | 334
O=C(Nc1ccc(C(F)(F)F)cc1)c1ccc(-c2ncccc2C(F)(F)F)cc1O | nM | = | 36
CCCOc1cccnc1-c1ccc(C(=O)Nc2ccc(C(C)(C)C)cc2)cc1 | nM | = | 20
Cc1cccnc1-c1ccc(C(=O)Nc2ccccn2)cc1 | nM | > | 4000
Cc1ccc(NC(=O)c2ccc(-c3ncccc3C)cc2)cc1 | nM | > | 4000
